# maps each entry to its IC50
target: TPH1 (tryptophan hydroxylase 1) (Homo sapiens (Human)); test: TPH1 inhibitor screening assay kit (BPS Bioscience), fluorescence; type: biochemical; conditions: TPH1 enzyme, 4 hours at 4° C., ex 300 nm / em 360 nm
Where a name gives a salt, the structure may show the parent alone.
Numeric answer only, unit nM assumed.

Consider the worked cases shown below.
Nc1nc(O[C@H](c2ccc(Cl)cc2C2=CCOCC2)C(F)(F)F)cc(C2=CCC3(CC2)CNC(C(=O)O)C3)n1 (stereo partly drawn) [Example 83, hydrochloride]; 1150
CCOC(=O)[C@@H](N)Cc1ccc(-c2csc3c(O[C@H](c4ccc(Cl)cc4-n4ccc(C)n4)C(F)(F)F)ncnc23)cc1 [Example 22, hydrochloride]; 993

The record that follows has no IC50 shown yet.
[Q] Specify reported IC50 for the compound shown: Nc1nc(O[C@H](c2ccc(Cl)cc2C2=CCCOC2)C(F)(F)F)cc(C2=CCC3(CC2)CNC(C(=O)O)C3)n1 (stereo partly drawn) [Example 94, hydrochloride]
[A] 209

---

biological target: TPH1 (tryptophan hydroxylase 1) (Homo sapiens (Human), UniProt P17752); assay: TPH1 inhibitor screening assay kit (BPS Bioscience), fluorescence; type: biochemical; conditions: TPH1 enzyme, 4 hours at 4° C., ex 300 nm / em 360 nm
Sequence (P17752 whole entry): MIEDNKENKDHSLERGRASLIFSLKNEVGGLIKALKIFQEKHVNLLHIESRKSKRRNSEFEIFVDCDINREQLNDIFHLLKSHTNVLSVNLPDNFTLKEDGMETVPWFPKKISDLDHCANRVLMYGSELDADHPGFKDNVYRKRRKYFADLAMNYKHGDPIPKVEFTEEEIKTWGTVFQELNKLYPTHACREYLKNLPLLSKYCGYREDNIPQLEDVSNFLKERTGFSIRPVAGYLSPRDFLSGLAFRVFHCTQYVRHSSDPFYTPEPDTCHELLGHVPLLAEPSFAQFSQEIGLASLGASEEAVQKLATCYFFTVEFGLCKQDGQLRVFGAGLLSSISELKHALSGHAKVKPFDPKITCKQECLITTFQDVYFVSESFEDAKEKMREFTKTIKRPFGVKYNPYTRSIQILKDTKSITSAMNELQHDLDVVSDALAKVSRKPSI
Where a name gives a salt, the structure may show the parent alone.
Below, each entry is listed with its recorded pIC50.
A value of pIC50 is the negative decimal logarithm of a concentration given in moles per litre.

Cc1ccn(-c2cc(Cl)ccc2[C@@H](Oc2ncnc3c(C4=CCC5(CC4)CNC(C(=O)O)C5)csc23)C(F)(F)F)n1 (stereo partly drawn) [Example 84, hydrochloride]; 6.51
Cc1ccn(-c2cc(Cl)ccc2[C@@H](Oc2cc(C3=CCC(C[C@H](N)C(=O)O)CC3)nc(N)n2)C(F)(F)F)n1 (stereo partly drawn) [Example 45]; 7.01

[Q] State, in one line, measured pIC50 of COc1cccc(-c2ccc(Cn3ccc4c(-c5ccc(C[C@H](N)C(=O)O)cc5)nc(N)nc43)cc2)c1 [Example 12, hydrochloride]
[A] 6.53

---

biological target: TPH1 (tryptophan hydroxylase 1) (Homo sapiens (Human), UniProt P17752); experiment: TPH1 inhibitor screening assay kit (BPS Bioscience), fluorescence; type: biochemical; settings: TPH1 enzyme, 4 hours at 4° C., ex 300 nm / em 360 nm
Where a name gives a salt, the structure may show the parent alone.
assay_metric: IC50
# include the unit after the value

Known results for compounds:
Cc1ccn(-c2cc(Cl)ccc2[C@@H](Oc2ncnc3c(C4=CCC(C[C@H](N)C(=O)O)CC4)csc23)C(F)(F)F)n1 (stereo partly drawn) [Example 30, hydrochloride]; 1510 nM
COc1cccc(-c2ccc([C@@H](Oc3cc(C4=CCC(C[C@H](N)C(=O)O)CC4)nc(N)n3)C(F)(F)F)cc2)c1 (stereo partly drawn); 204 nM

Moving on to the next compound.
[Q] Note IC50 for the compound shown: Nc1nc(O[C@H](c2ccc(Cl)cc2C2=CCOCC2)C(F)(F)F)cc(C2=CCC(C[C@H](N)C(=O)O)CC2)n1 (stereo partly drawn)
[A] 940 nM

---

Each item that follows carries a reported pIC50.
target: UniProt P17752; assay: TPH1 inhibitor screening assay kit (BPS Bioscience), fluorescence; assay type: biochemical; settings: TPH1 enzyme, 4 hours at 4° C., ex 300 nm / em 360 nm
Where a name gives a salt, the structure may show the parent alone.
# log scale: pIC50 equals minus log10 of the concentration in mol/L

N[C@@H](Cc1ccc(-c2csc3c(OC(c4ccc(Cl)cc4-c4ccccc4)C(F)(F)F)ncnc23)cc1)C(=O)O (stereo partly drawn) [Example 26, hydrochloride]; 6.17

[Q] Enter pIC50 (test system UniProt P17752) for N[C@@H](Cc1ccc(-c2csc3c(O[C@H](c4ccc(Cl)cc4C4=CCCOC4)C(F)(F)F)ncnc23)cc1)C(=O)O
[A] 6.43

[Q] Give pIC50; test system UniProt P17752; compound Cc1ccn(-c2cc(Cl)ccc2[C@@H](Oc2cc(C3=CCC4(CC3)CNC(C(=O)O)C4)nc(N)n2)C(F)(F)F)n1 (stereo partly drawn)
[A] 6.71
